Origin of values: ChEMBL document CHEMBL3822410

- assayExplanation: Permeability of the compound assessed as compound influx measured after 16 hrs by PAMPA assay
- Assay type: ADME
observationType: permeability (%)

- O=C(O)c1ccc([C@H]2C[C@](O)(c3ccc(OCc4c(-c5c(Cl)cccc5Cl)noc4C4CC4)cc3Cl)C2)cc1: 21

P: CC(C)n1nc(C(=O)O)cc1C1CC1c1ccc(OCc2c(-c3c(Cl)cccc3Cl)noc2C2CC2)cc1Cl (racemic)
Q: O=C(O)c1cccc([C@H]2C[C@H](c3ccc(OCc4c(-c5c(Cl)cccc5Cl)noc4C4CC4)cc3Cl)C2)c1
R: O=C(O)c1cccc(C2CC2c2ccc(OCc3c(-c4c(Cl)cccc4Cl)noc3C3CC3)cc2Cl)c1 (racemic)
S: CC(C)n1nc(C(=O)O)cc1[C@H]1C[C@](O)(c2ccc(OCc3c(-c4c(Cl)cccc4Cl)noc3C3CC3)cc2Cl)C1
Sort by permeability, descending. Note for the reader: the ranking is given by listing the labels in the order requested.
S, P, R, Q
(S: 46%, P: 29%, R: 17%, Q: 0%)

* * *

- targetUnderTest: Bile acid receptor (Homo sapiens)
- Sequence (Q96RI1 whole entry, the tested form may be a part): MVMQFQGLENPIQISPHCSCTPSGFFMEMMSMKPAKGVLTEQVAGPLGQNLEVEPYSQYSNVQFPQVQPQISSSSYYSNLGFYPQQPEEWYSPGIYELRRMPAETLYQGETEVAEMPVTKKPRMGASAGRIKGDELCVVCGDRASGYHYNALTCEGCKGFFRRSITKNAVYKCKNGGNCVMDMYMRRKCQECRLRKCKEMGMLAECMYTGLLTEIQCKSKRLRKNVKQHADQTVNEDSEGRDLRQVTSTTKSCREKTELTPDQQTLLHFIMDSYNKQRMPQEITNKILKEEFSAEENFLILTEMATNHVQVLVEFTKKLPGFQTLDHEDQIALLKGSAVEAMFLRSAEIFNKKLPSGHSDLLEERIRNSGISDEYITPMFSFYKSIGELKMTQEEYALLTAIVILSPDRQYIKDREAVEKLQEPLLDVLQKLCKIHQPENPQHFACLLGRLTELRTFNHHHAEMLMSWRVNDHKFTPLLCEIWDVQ
- assayExplanation: Agonist activity at C-terminal Gal4-tagged human FXR (187 to 472 residues) expressed in HEK-293 cells co-expressing pFRluc by mammalian one hybrid assay
- Type: cell-based, HEK293
observationType: EC50 (nM)

* CC(C)n1nc(C(=O)O)cc1C1CC1c1ccc(OCc2c(-c3c(Cl)cccc3Cl)noc2C2CC2)cc1Cl (racemic) | 6
* CS(=O)(=O)NC(=O)c1ccc(C2CC2c2ccc(OCc3c(-c4c(Cl)cccc4Cl)noc3C3CC3)cc2Cl)cc1 (racemic) | 44
* Clc1cc(OCc2c(-c3c(Cl)cccc3Cl)noc2C2CC2)ccc1C1CC1c1ccc(-c2nnn[nH]2)nc1 (stereo unspecified) | 111
* O=C(O)c1cccc([C@H]2C[C@@H](c3ccc(OCc4c(-c5c(Cl)cccc5Cl)noc4C4CC4)cc3Cl)C2)c1 | 92

1: O=C(O)c1cccc([C@H]2C[C@@H]2c2ccc(OCc3c(-c4c(Cl)cccc4Cl)noc3C3CC3)cc2Cl)c1
2: O=C(O)CNC(=O)c1ccc(C2CC2c2ccc(OCc3c(-c4c(Cl)cccc4Cl)noc3C3CC3)cc2Cl)cc1 (racemic)
3: Cn1nc(C(=O)O)c2ccc(C3CC3c3ccc(OCc4c(-c5c(Cl)cccc5Cl)noc4C4CC4)cc3Cl)cc21 (racemic)
4: O=C(O)c1cccc([C@H]2C[C@](O)(c3ccc(OCc4c(-c5c(Cl)cccc5Cl)noc4C4CC4)cc3Cl)C2)c1
Order the 4 compounds from highest to lowest EC50. Write the labels in rank order as requested.
2, 1, 4, 3
(2: 209 nM, 1: 90 nM, 4: 25 nM, 3: 14 nM)

a: O=C(O)c1ccc(C2CC2c2ccc(OCc3c(-c4c(Cl)cccc4Cl)noc3C3CC3)cc2Cl)cc1 (racemic)
b: O=C(O)c1ccc([C@H]2C[C@@H]2c2ccc(OCc3c(-c4c(Cl)cccc4Cl)noc3C3CC3)cc2Cl)cc1 [PX-102]
Select one: a or b . Criterion: greater recorded EC50. Please respond with the label that marks your chosen entry.
b

* * *

- assayExplanation: Apparent oral clearance in C57BL/6J mouse at 5 mg/kg
- Format: ADME, organism-based
- assaySetup: in vivo
observationType: CL/F (mL/min/kg)

Consider the reported CL/F for these molecules:
* O=C(O)c1ccc(C2CC2c2ccc(OCc3c(-c4c(Cl)cccc4Cl)noc3C3CC3)cc2Cl)cc1 (racemic) | 85
* O=C(O)c1cccc([C@H]2C[C@](O)(c3ccc(OCc4c(-c5c(Cl)cccc5Cl)noc4C4CC4)cc3Cl)C2)c1 | 4.7
* O=C(O)c1ccc([C@H]2C[C@](O)(c3ccc(OCc4c(-c5c(Cl)cccc5Cl)noc4C4CC4)cc3Cl)C2)cc1 | 190
* CC(C)n1nc(C(=O)O)cc1C1CC1c1ccc(OCc2c(-c3c(Cl)cccc3Cl)noc2C2CC2)cc1Cl (racemic) | 83

a: CC(C)n1nc(C(=O)O)cc1[C@H]1C[C@](O)(c2ccc(OCc3c(-c4c(Cl)cccc4Cl)noc3C3CC3)cc2Cl)C1
b: O=C(O)c1cccc(C2CC2c2ccc(OCc3c(-c4c(Cl)cccc4Cl)noc3C3CC3)cc2Cl)c1 (racemic)
Dear colleague, could you let me know whether a or b has the lower recorded CL/F? Thanks. Your answer should be the label attached to the chosen record.
a
